Can you tell me protein stability index for the items I'm about to list?
B1: EIF5 (parent)
chain: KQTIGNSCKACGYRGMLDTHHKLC

Variants of: B1
Assay: protein stability index of a GFP-peptide fusion (GPS, HEK-293T) (PSI 1-6); higher = more stable;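 further: lentivirally expressed fusions sorted by FACS into six bins by GFP to DsRed ratio, PSI derived from sequencing read proportions per bin multiplied by bin number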
Conditions: c terminus: a fixed tail appended

Ask: Annotate the variant R14N with its measured protein stability index.
Reply: 3.04

Ask: Quick one: give measured protein stability index for D18T
Reply: 2.96

Ask: # return recorded protein stability index for input K22E
Reply: 2.96

Ask: In one line, give reported protein stability index of the entry G15P .
Reply: 2.93
